- target: human TLR8 (Homo sapiens, UniProt Q9NR97)
- Sequence (Q9NR97 27-1041): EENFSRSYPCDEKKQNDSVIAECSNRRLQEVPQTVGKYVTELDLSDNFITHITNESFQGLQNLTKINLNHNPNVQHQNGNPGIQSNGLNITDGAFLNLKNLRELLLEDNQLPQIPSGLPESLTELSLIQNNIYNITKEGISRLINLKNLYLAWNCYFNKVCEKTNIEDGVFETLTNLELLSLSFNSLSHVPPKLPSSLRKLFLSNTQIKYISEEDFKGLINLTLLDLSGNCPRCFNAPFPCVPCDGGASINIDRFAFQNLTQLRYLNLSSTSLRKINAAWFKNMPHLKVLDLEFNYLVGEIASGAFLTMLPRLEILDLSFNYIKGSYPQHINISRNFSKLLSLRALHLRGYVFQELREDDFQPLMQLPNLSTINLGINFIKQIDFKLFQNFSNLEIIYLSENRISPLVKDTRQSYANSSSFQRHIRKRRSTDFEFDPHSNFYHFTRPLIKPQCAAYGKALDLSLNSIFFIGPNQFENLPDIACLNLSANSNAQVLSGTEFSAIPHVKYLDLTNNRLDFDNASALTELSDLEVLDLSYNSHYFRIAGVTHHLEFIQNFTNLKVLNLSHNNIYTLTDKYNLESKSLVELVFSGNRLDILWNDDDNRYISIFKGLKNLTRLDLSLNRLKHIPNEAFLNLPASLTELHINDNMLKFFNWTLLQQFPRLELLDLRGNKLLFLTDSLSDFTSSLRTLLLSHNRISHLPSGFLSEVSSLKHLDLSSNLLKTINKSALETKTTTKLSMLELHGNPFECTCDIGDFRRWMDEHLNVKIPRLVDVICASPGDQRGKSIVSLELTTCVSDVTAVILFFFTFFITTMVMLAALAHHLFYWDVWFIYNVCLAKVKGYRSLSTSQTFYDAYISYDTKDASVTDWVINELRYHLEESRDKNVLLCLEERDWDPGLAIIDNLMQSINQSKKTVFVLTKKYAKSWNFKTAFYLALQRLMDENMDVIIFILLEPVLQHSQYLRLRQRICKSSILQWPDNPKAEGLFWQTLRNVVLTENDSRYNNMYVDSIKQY
# pIC50 listing for each entry below
Here pIC50 is given on a logarithmic scale as minus log10 of the concentration in mol/L.

Study these solved cases before continuing.
[2H]c1ccc2c(N3C[C@@H]4CN(c5ncc(N6C[C@H]7NCCO[C@@H]7C6)cc5C)CCN4[C@@H](C)C3)ccc(C#N)c2n1 | 8.00
C[C@@H]1CN(c2ccc(C#N)c3ncccc23)C[C@@H]2CN(c3ccnc(N4CC[C@@](C)(N)C4)c3)CCN21 | 8.15

Query string: Endpoint output: pIC50 of "C[C@@H]1CN(c2ccc(C#N)c3ncccc23)C[C@@H]2CN(CCc3ccc(N4C[C@@H](N)[C@@H](F)C4)cn3)CCN21" . Value?
Result string: 7.51

* * *

- target: human TLR9 (Homo sapiens, UniProt Q9NR96)
- Sequence (Q9NR96 26-1032): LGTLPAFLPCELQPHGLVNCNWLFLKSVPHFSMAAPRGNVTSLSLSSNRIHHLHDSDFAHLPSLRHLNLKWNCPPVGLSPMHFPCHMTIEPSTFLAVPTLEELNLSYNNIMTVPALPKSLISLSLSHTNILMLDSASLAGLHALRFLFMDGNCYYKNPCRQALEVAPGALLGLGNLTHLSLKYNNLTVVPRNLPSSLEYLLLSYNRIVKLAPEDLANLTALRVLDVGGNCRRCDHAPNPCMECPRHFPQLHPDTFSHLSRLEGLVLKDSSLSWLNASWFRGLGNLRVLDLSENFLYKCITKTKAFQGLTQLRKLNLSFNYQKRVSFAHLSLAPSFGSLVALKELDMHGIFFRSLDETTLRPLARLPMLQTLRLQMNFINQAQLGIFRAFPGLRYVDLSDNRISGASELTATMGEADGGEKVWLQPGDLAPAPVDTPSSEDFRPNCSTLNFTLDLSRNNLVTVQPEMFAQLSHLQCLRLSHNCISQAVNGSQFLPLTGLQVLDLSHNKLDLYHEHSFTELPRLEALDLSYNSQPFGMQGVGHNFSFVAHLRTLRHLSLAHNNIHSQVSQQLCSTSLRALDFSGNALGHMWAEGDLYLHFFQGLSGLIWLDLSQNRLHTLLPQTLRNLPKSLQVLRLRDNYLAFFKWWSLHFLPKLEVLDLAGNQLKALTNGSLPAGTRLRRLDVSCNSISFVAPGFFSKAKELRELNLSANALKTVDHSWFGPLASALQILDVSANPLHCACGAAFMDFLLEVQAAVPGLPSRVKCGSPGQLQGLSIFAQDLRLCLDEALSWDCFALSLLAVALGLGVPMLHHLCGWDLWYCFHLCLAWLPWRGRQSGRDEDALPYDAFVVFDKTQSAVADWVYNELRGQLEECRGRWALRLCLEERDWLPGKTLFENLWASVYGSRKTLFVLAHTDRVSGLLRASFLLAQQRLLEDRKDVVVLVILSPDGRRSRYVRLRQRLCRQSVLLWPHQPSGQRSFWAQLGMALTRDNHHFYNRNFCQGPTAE
- assay_summary: HEK293-Blue-hTLR-9 cells assay
- experimental_parameters: HEK293-Blue-hTLR9 cells, ODN2006 stimulation, 20 hrs, SEAP reporter; read-out: HEK/hTLR9 IC50
# IC50 listing for each entry below
Return type: number; implicit unit nM.

C[C@@H]1CN(c2ccc(C#N)c3ncccc23)C[C@@H]2CN(Cc3ccnc(N4CCNCC4)c3)CCN21 (relative stereo) | 110
C[C@@H]1CN(c2ccc(C#N)c3ncccc23)C[C@@H]2CN(Cc3cccc(N4CCNCC4)n3)CCN21 | 49
Cc1nc(N2CCN[C@H](C)C2)ccc1CN1CCN2[C@@H](C1)CN(c1ccc(C#N)c3ncccc13)C[C@H]2C | 62
[2H]c1ccc2c(N3C[C@@H]4CN(c5ncc(N6C[C@@H]7C[C@H]6CN7)cc5C)CCN4[C@@H](C)C3)ccc(C#N)c2n1 | 119
[2H]c1ccc2c(N3C[C@@H]4CN(c5ncc(N6CC[C@@](C)(N)C6)cc5C)CCN4[C@H](C)C3)ccc(C#N)c2n1 | 140

Query string: Endpoint output: IC50 of "[2H]c1ccc2c(N3C[C@@H]4CN(c5ncc(N6C[C@H]7NCCO[C@@H]7C6)cc5C)CCN4[C@H](C)C3)ccc(C#N)c2n1" . Value?
Result string: 173
